molecular target: Ba/F3-BCR-ABL1-WT cells (Homo sapiens, UniProt P00519); construct: fused on or other part: P11274 (Breakpoint cluster region protein); assay: Ba/F3-BCR-ABL1-WT cell proliferation assay; type: cell-based, murine; settings: 48 hours; read-out: Ba/F3-BCR-ABL1-WT IC50
Sequence (P00519 whole entry, change not shown, the tested form may be a part): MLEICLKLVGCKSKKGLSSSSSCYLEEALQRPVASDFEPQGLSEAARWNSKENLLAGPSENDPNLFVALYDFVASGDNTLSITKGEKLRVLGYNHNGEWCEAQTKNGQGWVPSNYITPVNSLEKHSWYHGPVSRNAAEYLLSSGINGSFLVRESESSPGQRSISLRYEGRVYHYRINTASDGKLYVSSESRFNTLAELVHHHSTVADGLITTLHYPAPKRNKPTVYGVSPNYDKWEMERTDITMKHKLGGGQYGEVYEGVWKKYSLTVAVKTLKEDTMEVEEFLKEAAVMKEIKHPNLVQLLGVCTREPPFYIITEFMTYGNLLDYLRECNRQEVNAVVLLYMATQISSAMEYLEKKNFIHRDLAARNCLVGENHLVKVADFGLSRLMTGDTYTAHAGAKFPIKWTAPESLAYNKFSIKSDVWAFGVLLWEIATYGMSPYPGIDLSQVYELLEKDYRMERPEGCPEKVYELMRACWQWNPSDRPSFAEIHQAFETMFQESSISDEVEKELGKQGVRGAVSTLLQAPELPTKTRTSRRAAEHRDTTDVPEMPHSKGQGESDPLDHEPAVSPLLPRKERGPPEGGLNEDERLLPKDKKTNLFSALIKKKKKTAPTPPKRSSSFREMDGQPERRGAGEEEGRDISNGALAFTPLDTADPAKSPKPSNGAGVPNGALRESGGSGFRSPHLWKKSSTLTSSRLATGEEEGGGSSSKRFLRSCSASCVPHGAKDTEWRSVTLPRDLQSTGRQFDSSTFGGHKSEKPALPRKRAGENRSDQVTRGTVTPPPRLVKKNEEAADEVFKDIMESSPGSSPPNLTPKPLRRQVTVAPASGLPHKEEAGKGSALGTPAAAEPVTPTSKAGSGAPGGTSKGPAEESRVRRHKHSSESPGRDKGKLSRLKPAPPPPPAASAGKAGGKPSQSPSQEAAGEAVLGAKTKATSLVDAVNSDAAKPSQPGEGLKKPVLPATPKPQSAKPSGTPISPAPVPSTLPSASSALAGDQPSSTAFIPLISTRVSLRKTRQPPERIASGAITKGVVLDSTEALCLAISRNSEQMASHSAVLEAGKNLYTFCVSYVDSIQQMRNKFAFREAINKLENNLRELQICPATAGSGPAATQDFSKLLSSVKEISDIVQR
Kindly supply the reported GI50 values for the records listed here.
One number for each entry, in nM.

Study these solved cases before continuing.
O=C(Nc1ccc(OC(F)(F)F)c(F)c1)c1cnc(N2CC[C@@H](O)C2)c(-c2ccn[nH]2)c1 : 9.6
NC[C@@H]1CCN(c2ncc(C(=O)Nc3ccc(OC(F)(F)Cl)cc3)cc2-c2ccn[nH]2)C1 : 4
O=C(Nc1ccc(SC(F)(F)Cl)cc1)c1cnc(N2CC[C@@H](O)C2)c(-c2ccn[nH]2)c1 : 1.5
Cn1ccc(-c2cc(C(=O)Nc3ccc(OC(F)(F)Cl)cc3)cnc2N2CC[C@@H](O)C2)n1 : 7.5

Provide the reported GI50 of each entry below, same order.
1. Cc1cc(-c2cc(C(=O)Nc3ccc(OC(F)(F)F)cc3)cnc2N2CC[C@@H](O)C2)[nH]n1
2. O=C(Nc1ccc(SC(F)(F)F)cc1)c1cnc(N2CC[C@H](CO)C2)c(-c2ccn[nH]2)c1

1. 7.5
2. 1.9

Provide the reported GI50 of each entry below, same order.
1. O=C(Nc1ccc(OC(F)(F)Cl)cc1)c1cnc(N2CC[C@@H](O)C2)c(-c2cc(C(F)(F)F)n[nH]2)c1
2. O=C(Nc1ccc(C(F)(F)C(F)(F)F)cc1)c1cnc(N2CC[C@@H](O)C2)c(-c2ccn[nH]2)c1
3. O=C(Nc1ccc(C(F)(F)C(F)(F)Cl)cc1)c1cnc(N2CC[C@@H](O)C2)c(-c2ccn[nH]2)c1
4. COC(=O)C1CCN(c2ncc(C(=O)Nc3ccc(OC(F)(F)Cl)cc3)cc2-c2ccn[nH]2)C1 (stereo not shown)
5. O=C(Nc1ccc(SC(F)(F)F)cc1)c1cnc(N2CC[C@@H](O)C2)c(-c2ccn[nH]2)c1
6. O=C(Nc1ccc(OC(F)(F)C(F)(F)F)cc1)c1cnc(N2CC[C@@H](O)C2)c(-c2ccn[nH]2)c1

9
4.1
4.1
1.9
1
13.5

Provide the reported GI50 of each entry below, same order.
1. Cc1cn[nH]c1-c1cc(C(=O)Nc2ccc(OC(F)(F)Cl)cc2)cnc1N1CC[C@@H](O)C1
2. O=C(Nc1ccc(OC(F)(F)Cl)cc1)c1cnc(N2CC[C@H](CO)C2)c(-c2ccn[nH]2)c1
3. Cc1cn[nH]c1-c1cc(C(=O)Nc2ccc(OC(F)(F)F)cc2)cnc1N1CC[C@@H](O)C1
4. O=C(Nc1ccc(OC(F)(F)F)cc1)c1cnc(N2CC[C@@H](O)C2)c(-c2[nH]ncc2F)c1

1. 1.5
2. 1.9
3. 11.7
4. 8.1

* * *

molecular target: ABL1 (64-515) (Homo sapiens); construct: 3.5 nM ABL (ABL(64-515), produced in-house from E. coli); His6 followed by a PreScission protease cleavage site (N, cleaved yes); made in house; host or cells: E. coli (BL21 (DE3) according to b733); experiment: Caliper ABL1 (64-515) microfluidic mobility shift assay; assay type: biochemical; conditions: Table of Biochemical Data
Sequence (P00519 64-515): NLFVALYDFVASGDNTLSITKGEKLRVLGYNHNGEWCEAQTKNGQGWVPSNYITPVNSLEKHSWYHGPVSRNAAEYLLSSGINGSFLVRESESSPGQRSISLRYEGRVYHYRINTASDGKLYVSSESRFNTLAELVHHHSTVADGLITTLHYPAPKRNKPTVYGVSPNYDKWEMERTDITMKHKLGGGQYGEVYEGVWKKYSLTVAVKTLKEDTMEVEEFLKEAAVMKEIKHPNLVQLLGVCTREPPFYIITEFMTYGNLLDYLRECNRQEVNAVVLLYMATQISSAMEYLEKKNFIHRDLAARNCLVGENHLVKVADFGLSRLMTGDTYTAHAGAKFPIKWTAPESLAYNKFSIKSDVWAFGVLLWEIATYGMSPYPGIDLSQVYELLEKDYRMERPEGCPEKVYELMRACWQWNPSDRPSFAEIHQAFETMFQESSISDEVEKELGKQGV
readout-label: pIC50
Answers are plain numbers, as −log10 of the molar value.

O=C(Nc1ccc(OC(F)(F)F)cc1)c1cnc(N2CC[C@@H](OP(=O)(O)O)C2)c(-c2ccn[nH]2)c1 [Example 40] : 8.68
O=C(Nc1ccc(OC(F)(F)F)c(F)c1)c1cnc(N2CC[C@H](CO)C2)c(-c2ccn[nH]2)c1 [Example 14] : 9.05
O=C(Nc1ccc(OC(F)(F)Cl)cc1)c1cnc(N2CC[C@H](CO)C2)c(-c2ccn[nH]2)c1 [Example 10] : 9.52
O=C(Nc1ccc(OC(F)(F)F)cc1)c1cnc(N2CC[C@H](CO)C2)c(-c2ccn[nH]2)c1 [Example 7] : 9.40
Cn1cc(-c2cc(C(=O)Nc3ccc(OC(F)(F)F)cc3)cnc2N2CC[C@@H](O)C2)cn1 [Example 6] : 8.49
O=C(Nc1ccc(OC(F)(F)Cl)cc1)c1cnc(N2CC[C@@H](O)C2)c(-c2cc(C(F)(F)F)n[nH]2)c1 [Example 26] : 7.98
Cc1cn[nH]c1-c1cc(C(=O)Nc2ccc(OC(F)(F)F)cc2)cnc1N1CC[C@@H](O)C1 [Example 4] : 8.89
CC(F)(F)Oc1ccc(NC(=O)c2cnc(N3CC[C@@H](O)C3)c(-c3ccn[nH]3)c2)cc1 [Example 30] : 8.37
CC(C)[C@H](N)C(=O)O[C@@H]1CCN(c2ncc(C(=O)Nc3ccc(OC(F)(F)Cl)cc3)cc2-c2ccn[nH]2)C1 [Example 38] : 8.60
O=C(Nc1ccc(C(F)(F)C(F)(F)Cl)cc1)c1cnc(N2CC[C@@H](O)C2)c(-c2ccn[nH]2)c1 [Example 31] : 8.60

Provide the reported pIC50 of each entry below, same order.
1. Cc1cn[nH]c1-c1cc(C(=O)Nc2ccc(OC(F)(F)Cl)cc2)cnc1N1CC[C@@H](O)C1 [Example 33]
2. O=C(Nc1ccc(OC(F)(F)F)cc1)c1cnc(N2CC[C@@H](O)C2)c(-c2[nH]ncc2F)c1 [Example 5]
3. O=C(Nc1ccc(S(F)(F)(F)(F)F)cc1)c1cnc(N2CC[C@@H](O)C2)c(-c2ccn[nH]2)c1 [Example 17]
4. O=C(Nc1ccc(SC(F)(F)Cl)cc1)c1cnc(N2CC[C@@H](O)C2)c(-c2ccn[nH]2)c1 [Example 18]
5. O=C(Nc1ccc(OC(F)(F)F)c(F)c1)c1cnc(N2CC[C@@H](O)C2)c(-c2ccn[nH]2)c1 [Example 13]
6. O=C(Nc1ccc(OC(F)(F)F)cc1)c1ccc(N2CC[C@@H](O)C2)c(-c2ccn[nH]2)c1 [Example 1]
7. Cc1cc(-c2cc(C(=O)Nc3ccc(OC(F)(F)F)cc3)cnc2N2CC[C@@H](O)C2)[nH]n1 [Example 3]

1: 9.22; 2: 8.92; 3: 8.62; 4: 9.70; 5: 9.22; 6: 8.66; 7: 9.15

* * *

target: ABL1 (64-515) (Homo sapiens); construct: 3.5 nM ABL (ABL(64-515), produced in-house from E. coli); His6 followed by a PreScission protease cleavage site (N, cleaved yes); made in house; host or cells: E. coli (BL21 (DE3) according to b733); assay: Caliper ABL1 (64-515) microfluidic mobility shift assay; format: biochemical; details: Table of Biochemical Data
pIC50: −log10 of the molar value.
Use T when the recorded pIC50 is no lower than 9; use F when it is lower.

Consider the following illustrative entries.
O=C(Nc1ccc(SC(F)(F)F)c(F)c1)c1cnc(N2CC[C@@H](O)C2)c(-c2ccn[nH]2)c1 [Example 15] : T
O=C(Nc1ccc(OC(F)(F)Cl)cc1)c1cnc(N2CCC(C(=O)O)C2)c(-c2ccn[nH]2)c1 (stereo not drawn) [Example 37] : T
Cn1ccc(-c2cc(C(=O)Nc3ccc(OC(F)(F)Cl)cc3)cnc2N2CC[C@@H](O)C2)n1 [Example 28] : F

Tell me whether pIC50 is at least 9 here: Cc1cc(-c2cc(C(=O)Nc3ccc(OC(F)(F)Cl)cc3)cnc2N2CC[C@@H](O)C2)[nH]n1 [Example 23]
T

Tell me whether pIC50 is at least 9 here: O=C(Nc1ccc(SC(F)(F)F)cc1)c1cnc(N2CC[C@H](CO)C2)c(-c2ccn[nH]2)c1 [Example 12]
T

Tell me whether pIC50 is at least 9 here: COC(=O)C1CCN(c2ncc(C(=O)Nc3ccc(OC(F)(F)Cl)cc3)cc2-c2ccn[nH]2)C1 (stereo not drawn) [Example 36]
F

Tell me whether pIC50 is at least 9 here: O=C(Nc1ccc(OC(F)(F)Cl)cc1)c1ccc(N2CC[C@@H](O)C2)c(-c2ccn[nH]2)c1 [Example 20]
T

Tell me whether pIC50 is at least 9 here: O=C(Nc1ccc(OC(F)(F)Cl)cc1)c1ccc(N2CC[C@@H](O)C2)c(-c2[nH]ncc2F)c1 [Example 24]
T

Tell me whether pIC50 is at least 9 here: O=C(Nc1ccc(SC(F)(F)F)nc1)c1cnc(N2CC[C@@H](O)C2)c(-c2ccn[nH]2)c1 [Example 32]
F

Tell me whether pIC50 is at least 9 here: O=C(Nc1ccc(C(F)(F)C(F)(F)F)cc1)c1cnc(N2CC[C@@H](O)C2)c(-c2ccn[nH]2)c1 [Example 16]
T

* * *

Kindly supply the reported GI50 values for the records listed here.
molecular target: Ba/F3-BCR-ABL1-WT cells (Homo sapiens, UniProt P00519); construct: fused on or other part: P11274 (Breakpoint cluster region protein); assay: Ba/F3-BCR-ABL1-WT cell proliferation assay; assay type: cell-based, murine; conditions: 48 hours; read-out: Ba/F3-BCR-ABL1-WT IC50

Provide the reported GI50 of each entry below, same order.
1. O=C(Nc1ccc(OC(F)(F)F)c(F)c1)c1cnc(N2CC[C@H](CO)C2)c(-c2ccn[nH]2)c1 [Example 14]
2. O=C(Nc1ccc(SC(F)(F)F)c(F)c1)c1cnc(N2CC[C@@H](O)C2)c(-c2ccn[nH]2)c1 [Example 15]
3. O=C(Nc1ccc(S(F)(F)(F)(F)F)cc1)c1cnc(N2CC[C@@H](O)C2)c(-c2ccn[nH]2)c1 [Example 17]
4. CC(F)(F)Oc1ccc(NC(=O)c2cnc(N3CC[C@@H](O)C3)c(-c3ccn[nH]3)c2)cc1 [Example 30]

1. 18.9 nM
2. 1.9 nM
3. 15.5 nM
4. 31.8 nM

Provide the reported GI50 of each entry below, same order.
1. O=C(Nc1ccc(OC(F)(F)Cl)cc1)c1ccc(N2CC[C@@H](O)C2)c(-c2[nH]ncc2F)c1 [Example 24]
2. O=C(Nc1ccc(OC(F)(F)F)cc1)c1cnc(N2CC[C@H](CO)C2)c(-c2ccn[nH]2)c1 [Example 7]
3. Cc1cc(-c2cc(C(=O)Nc3ccc(OC(F)(F)Cl)cc3)cnc2N2CC[C@@H](O)C2)[nH]n1 [Example 23]

1. 1.1 nM
2. 6 nM
3. 1.7 nM
